# tgt: human recombinant PTP1B (hGST-PTP1B) (Homo sapiens)
# Construct: made in house; host or cells: E. coli BL21
# protocol: PTP1B inhibitory assay (pNPP hydrolysis, absorbance at 405 nm)
# Format: biochemical
# stated_conditions: 20 μg/mL compound; 2 mM pNPP, 30 nM hGST-PTP1B, pH 6.5, 30° C.
measured_metric: inhibition at 20 µg/mL (%)

Previously resolved entries follow.
[[record]]
compound = "CCCCOCc1cc(O)c(O)c(Br)c1Cc1cc(O)c(O)c(Br)c1Br [Compound 4]"
value_observed = 64.6

[[record]]
compound = "CCCOCc1cc(O)c(O)c(Br)c1Cc1cc(O)c(O)c(Br)c1Br [Compound 2]"
value_observed = 86.2

[[record]]
compound = "CCCCOCc1cc(O)c(O)c(Br)c1Cc1c(Br)c(O)c(O)c(Br)c1Br [Compound 10]"
value_observed = 99

[[record]]
compound = "COc1cc(Br)c(Cc2cc(OC)c(OC)c(Br)c2Cc2cc(OC)c(OC)c(Br)c2Br)cc1OC [Compound 7]"
value_observed = 101

[[record]]
compound = "CC(C)COCc1cc(O)c(O)c(Br)c1Cc1cc(O)c(O)c(Br)c1Br [Compound 5]"
value_observed = 96.2


P = Cc1cc(O)c(O)c(Br)c1Cc1c(Br)c(O)c(O)c(Br)c1Br [Compound 12]
Q = CC(C)OCc1cc(O)c(O)c(Br)c1Cc1cc(O)c(O)c(Br)c1Br [Compound 3]
Request: Between P and Q , which one has the lower reported inhibition at 20 µg/mL value? Could you answer with the label of the item you picked?
Response: P

* * *

# tgt: human recombinant PTP1B (hGST-PTP1B) (Homo sapiens, UniProt P18031)
# Construct: made in house; host or cells: E. coli BL21
# Sequence (P18031 whole entry): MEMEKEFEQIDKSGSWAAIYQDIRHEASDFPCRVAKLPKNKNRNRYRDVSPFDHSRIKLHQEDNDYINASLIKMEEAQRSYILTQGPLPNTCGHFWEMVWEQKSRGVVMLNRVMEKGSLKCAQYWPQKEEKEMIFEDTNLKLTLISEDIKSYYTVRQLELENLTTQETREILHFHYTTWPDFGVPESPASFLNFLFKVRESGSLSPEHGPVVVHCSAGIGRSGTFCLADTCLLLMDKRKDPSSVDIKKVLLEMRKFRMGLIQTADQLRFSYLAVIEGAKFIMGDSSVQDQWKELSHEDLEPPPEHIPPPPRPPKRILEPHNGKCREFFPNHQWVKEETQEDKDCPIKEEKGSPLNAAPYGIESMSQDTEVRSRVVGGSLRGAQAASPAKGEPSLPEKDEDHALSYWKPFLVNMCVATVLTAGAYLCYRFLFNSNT
# protocol: PTP1B inhibitory assay (pNPP hydrolysis, absorbance at 405 nm)
# Assay type: biochemical
# stated_conditions: 5 μg/mL compound; 2 mM pNPP, 30 nM hGST-PTP1B, pH 6.5, 30° C.
measured_metric: inhibition at 5 µg/mL (%)

Previously resolved entries follow.
[[record]]
compound = "COc1cc(C(=O)c2c(C(Br)Br)cc(OC)c(OC)c2Br)c(Br)c(Br)c1OC"
unit_string = "%"
value_observed = 47.9

[[record]]
compound = "CCC(C)OCc1cc(O)c(O)c(Br)c1Cc1cc(O)c(O)c(Br)c1Br (stereo not shown)"
unit_string = "%"
value_observed = 42.4

[[record]]
compound = "CC(C)COCc1cc(O)c(O)c(Br)c1Cc1cc(O)c(O)c(Br)c1Br"
unit_string = "%"
value_observed = 48.3


1 = CCCCOCc1cc(O)c(O)c(Br)c1Cc1cc(O)c(O)c(Br)c1Br
2 = CCCOCc1cc(O)c(O)c(Br)c1Cc1c(Br)c(O)c(O)c(Br)c1Br
Request: Between 1 and 2 , which one has the lower reported inhibition at 5 µg/mL value? Could you answer with the label of the item you picked?
Response: 1
(1: 27.2%, 2: 42.4%)

* * *

# tgt: human recombinant PTP1B (hGST-PTP1B) (Homo sapiens)
# Construct: made in house; host or cells: E. coli BL21
# protocol: PTP1B inhibitory assay (pNPP hydrolysis, absorbance at 405 nm)
# Type: biochemical
# stated_conditions: 20 μg/mL compound; 2 mM pNPP, 30 nM hGST-PTP1B, pH 6.5, 30° C.
measured_metric: inhibition at 20 µg/mL (%)

[[record]]
compound = "CC(C)OCc1cc(O)c(O)c(Br)c1Cc1c(Br)c(O)c(O)c(Br)c1Br"
unit_string = "%"
value_observed = 98.5

[[record]]
compound = "CCC(C)OCc1cc(O)c(O)c(Br)c1Cc1cc(O)c(O)c(Br)c1Br (centres unmarked)"
unit_string = "%"
value_observed = 96.5

[[record]]
compound = "CCCOCc1cc(O)c(O)c(Br)c1Cc1c(Br)c(O)c(O)c(Br)c1Br"
unit_string = "%"
value_observed = 98.8

[[record]]
compound = "COc1cc(C(=O)c2c(C(Br)Br)cc(OC)c(OC)c2Br)c(Br)c(Br)c1OC"
unit_string = "%"
value_observed = 101

[[record]]
compound = "CC(C)COCc1cc(O)c(O)c(Br)c1Cc1c(Br)c(O)c(O)c(Br)c1Br"
unit_string = "%"
value_observed = 101

